assayTarget: Large T antigen (Simian virus 40) (UniProt P03070)
Sequence (P03070 whole entry, looked up): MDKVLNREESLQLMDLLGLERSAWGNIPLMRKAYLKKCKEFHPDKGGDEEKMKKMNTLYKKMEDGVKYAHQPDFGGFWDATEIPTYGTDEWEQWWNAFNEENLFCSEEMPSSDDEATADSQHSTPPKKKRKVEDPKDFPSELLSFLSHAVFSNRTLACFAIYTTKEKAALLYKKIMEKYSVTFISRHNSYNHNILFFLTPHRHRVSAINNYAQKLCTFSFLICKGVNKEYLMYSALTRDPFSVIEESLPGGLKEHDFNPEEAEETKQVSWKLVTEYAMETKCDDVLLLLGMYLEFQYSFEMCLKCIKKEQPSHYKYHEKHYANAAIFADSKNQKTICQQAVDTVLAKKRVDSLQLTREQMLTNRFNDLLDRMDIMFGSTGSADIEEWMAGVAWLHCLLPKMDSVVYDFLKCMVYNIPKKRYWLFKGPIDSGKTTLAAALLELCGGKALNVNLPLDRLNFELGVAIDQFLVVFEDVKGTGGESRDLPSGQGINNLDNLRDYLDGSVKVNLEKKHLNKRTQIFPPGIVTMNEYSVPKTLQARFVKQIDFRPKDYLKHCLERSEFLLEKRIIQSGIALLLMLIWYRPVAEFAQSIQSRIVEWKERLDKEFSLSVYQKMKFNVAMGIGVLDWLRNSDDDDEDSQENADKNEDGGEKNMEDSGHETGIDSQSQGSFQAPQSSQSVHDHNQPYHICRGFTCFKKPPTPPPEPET
assayText: SV40 large T antigen inhibitors, biochemical (AID 1903)
testContext: SV40 large T antigen ATPase/helicase inhibition assay; at 20 µM; active compounds read high
Among all 310,000 compounds or so, about 1,200 (0.39%) were called active. A selection follows. Results with a measured potency or affinity are listed apart.
# binarize inhibition: threshold 20% inclusive, high side 1.0, low side 0.0

Record excerpt, results attached:
{"molecule": "CCN(CC)c1ccc(/C=N/NS(=O)(=O)c2cccc([N+](=O)[O-])c2)cc1", "assayTarget": "Large T antigen (Simian virus 40) (UniProt P03070)", "classAssignment": 0.0}
{"molecule": "COc1ccc(NC(=O)c2sc(SC)nc2N)cc1", "assayTarget": "Large T antigen (Simian virus 40) (UniProt P03070)", "classAssignment": 0.0}
{"molecule": "COc1cc2c(cc1OC)-c1cc3ccc(OC)c(OC)c3c[n+]1CC2", "assayTarget": "Large T antigen (Simian virus 40) (UniProt P03070)", "classAssignment": 0.0}

Task item: Exam item: decide whether the reported inhibition for Cc1ccc(S(=O)(=O)N/N=C/c2ccccc2O)cc1[N+](=O)[O-] is at least 20%.
Reply: 0.0

Task item: Exam item: decide whether the reported inhibition for O=[N+]([O-])c1ccccc1N=Nc1ccc(O)cc1 is at least 20%.
Reply: 0.0

###

assayTarget: Large T antigen (Simian virus 40) (UniProt P03070)
assayText: SV40 large T antigen inhibitors, biochemical (AID 1903)
testContext: SV40 large T antigen ATPase/helicase inhibition assay; at 20 µM; active compounds read high
The whole screen tested about 310,000 compounds, of which about 1,200 (0.39%) were called active. Not all results are given here. Potency and affinity values are given separately.
readout: inhibition (%)
Reply with just the number (in %).

Use these answered entries as a reference point.
{"compound": "O=C(NC1CC(=O)N(c2ccc3c(c2)OCCO3)C1)N1CCCCC1 (stereo unspecified)", "readout": "inhibition", "quantitativeReadout": 11.8}
{"compound": "COc1ccc(/C=C2\\N=C3CCCCCN3C2=O)cc1OC", "readout": "inhibition", "quantitativeReadout": 13.5}
{"compound": "COc1ccc(/C=C2\\N=C3CCCCCN3C2=O)cc1", "readout": "inhibition", "quantitativeReadout": 3.96}
{"compound": "COc1ccc(NC(=O)C/C(C)=N/NC(=O)c2cnccn2)cc1", "readout": "inhibition", "quantitativeReadout": -3.03}
{"compound": "C/C(CC(=O)Nc1ccccn1)=N\\NC(=O)c1ccc2ccccc2c1", "readout": "inhibition", "quantitativeReadout": -45.2}

Task item: Dear colleague, please send me the reported inhibition for COc1cccc(/C=C2\N=C3CCCCCN3C2=O)c1 when you can.
Reply: 13.8

Task item: Dear colleague, please send me the reported inhibition for COc1ccc(NC(=O)COc2ccc(C)cc2)c([N+](=O)[O-])c1 when you can.
Reply: 5.55

Task item: Dear colleague, please send me the reported inhibition for CCC(=O)N/N=C(\C)CC(=O)Nc1ccc2ccccc2c1 when you can.
Reply: 11.7

Task item: Dear colleague, please send me the reported inhibition for COC(=O)CN1C(c2cccc(Cl)c2)=Nc2ccc(Cl)cc2C1c1ccccc1 (stereo unspecified) when you can.
Reply: 7.04

Task item: Dear colleague, please send me the reported inhibition for C/C(CC(=O)Nc1ccc(N(C)C)cc1)=N\NC(=O)c1ccc(F)cc1 when you can.
Reply: 29.8

Task item: Dear colleague, please send me the reported inhibition for O=C1/C(=C/c2ccncc2)N=C2CCCCCN12 when you can.
Reply: 18.3

###

assayTarget: Large T antigen (Simian virus 40)
assayText: SV40 large T antigen inhibitors, biochemical (AID 1903)
testContext: SV40 large T antigen ATPase/helicase inhibition assay; at 20 µM; active compounds read high
Among all 310,000 compounds or so, about 1,200 (0.39%) were called active. The list is a sample of the results. Results with a measured potency or affinity are listed apart.
readout: inhibition (%)
Reply with just the number (in %).

{"molecule": "Cc1cc(C)c(S(=O)(=O)c2ccccc2C)c(N(C)C)n1", "quantitativeReadout": 21.5}
{"molecule": "Cc1ccc([N+](=O)[O-])c(C(=O)N/N=C/c2cccnc2)c1", "quantitativeReadout": 13.6}

Task item: Given c1ccc(Nc2ccccc2)cc1 , report its inhibition on Large T antigen (Simian virus 40).
Reply: 12.1

Task item: Given COC(=O)c1c(-c2ccccc2)noc1-c1ccccc1 , report its inhibition on Large T antigen (Simian virus 40).
Reply: 8.1

Task item: Given CCOC(=O)C1CC2CC(C1)CN(C(=O)C1CCCCC1)C2 (stereo unspecified) , report its inhibition on Large T antigen (Simian virus 40).
Reply: 1.74

Task item: Given Cc1c(NC(=O)C(C)OC(=O)COc2ccccc2)c(=O)n(-c2ccccc2)n1C (stereo unspecified) , report its inhibition on Large T antigen (Simian virus 40).
Reply: 10.4

###

assayTarget: Large T antigen (Simian virus 40) (UniProt P03070)
assayText: SV40 large T antigen inhibitors, biochemical (AID 1903)
testContext: SV40 large T antigen ATPase/helicase inhibition assay; at 20 µM; active compounds read high
The campaign covered roughly 310,000 compounds. About 1,200 (0.39%) were called active. A selection follows. Entries with a potency or affinity are not part of this list.
Quick reference for inhibition among some compounds
Reply with just the number (in %).

{"compound": "Cc1cc(-c2sccc2C)nc(-n2cccc2)n1", "quantityUnit": "%", "inhibition": 1.14}

Task item: Dear colleague, please send me the reported inhibition for O=C(Nc1cccc2ccccc12)N1CC=CCC1 when you can.
Reply: 5.64

Task item: Dear colleague, please send me the reported inhibition for Cc1ccc(C(=O)N/C(=C\c2ccc3c(c2)OCO3)C(=O)Nc2ccc(C(=O)O)cc2)cc1 when you can.
Reply: 1.87

Task item: Dear colleague, please send me the reported inhibition for CN1C(=O)C(CC(=O)NC2CCCCC2)N(C)C1=O (stereo not drawn) when you can.
Reply: -7.63

Task item: Dear colleague, please send me the reported inhibition for COCCCNCCOCCOc1ccc(C)cc1[N+](=O)[O-] when you can.
Reply: 0.35

Task item: Dear colleague, please send me the reported inhibition for COc1ccc(Cl)cc1Nc1nc(-c2sc(NC(=O)c3ccccc3)nc2C)cs1 when you can.
Reply: 2.67

Task item: Dear colleague, please send me the reported inhibition for Cc1cc(C)n(-c2nc3ccccc3c(=O)n2OCC(=O)Nc2c(C)cccc2C)n1 when you can.
Reply: 1.06

Task item: Dear colleague, please send me the reported inhibition for COc1cc(SC)ccc1C(=O)NCCc1c[nH]c2ccccc12 when you can.
Reply: 8.89

Task item: Dear colleague, please send me the reported inhibition for C=CCNC(=O)COCc1cc(-c2ccc3c(c2)OCO3)on1 when you can.
Reply: 7.76

Task item: Dear colleague, please send me the reported inhibition for COc1ccc(Nc2nc(N3CCN(S(=O)(=O)N(C)C)CC3)nc3ccccc23)cc1 when you can.
Reply: 6.91

Task item: Dear colleague, please send me the reported inhibition for CN(CC(=O)Nc1ccc(Cl)c(C(F)(F)F)c1)C(=O)C1CCC1 when you can.
Reply: 17.7

Task item: Dear colleague, please send me the reported inhibition for O=C(NCCNc1nccc(C(F)(F)F)n1)c1cccs1 when you can.
Reply: 7.79

Task item: Dear colleague, please send me the reported inhibition for CCOc1cc(CNc2ccc3c(c2)OCCO3)cc(Br)c1OCC(N)=O when you can.
Reply: 32.4

Task item: Dear colleague, please send me the reported inhibition for COc1ccc(N(CC(=O)N2CCOCC2)S(C)(=O)=O)cc1OC when you can.
Reply: 4.22

Task item: Dear colleague, please send me the reported inhibition for NC(=O)c1cc(S(=O)(=O)N2CCN(c3ccc([N+](=O)[O-])cc3)CC2)cs1 when you can.
Reply: 14.4

Task item: Dear colleague, please send me the reported inhibition for CCOc1cc(CNc2ccc(N3CCCCC3)cc2)cc(Br)c1OCC(=O)NC(C)(C)C when you can.
Reply: 19.5

Task item: Dear colleague, please send me the reported inhibition for CN(c1ccccc1)c1ccc(/C=N/N2CCOCC2)cc1 when you can.
Reply: 32.7

Task item: Dear colleague, please send me the reported inhibition for COc1cc(CNC(C)(C)C)ccc1OCC(=O)NC(C)(C)C when you can.
Reply: 12.2

###

assayTarget: Large T antigen (Simian virus 40) (UniProt P03070)
assayText: SV40 large T antigen inhibitors, biochemical (AID 1903)
testContext: SV40 large T antigen ATPase/helicase inhibition assay; at 20 µM; active compounds read high
The whole screen tested about 310,000 compounds, of which about 1,200 (0.39%) were called active. Only a sample is shown. Potency and affinity values are given separately.
Quick reference for inhibition among some compounds
Reply with just the number (in %).

Use these answered entries as a reference point.
{"compound": "O=C(N/N=C/c1cccnc1)c1cccc(S(=O)(=O)N2CCCC2)c1", "readout": "inhibition", "quantityUnit": "%", "quantitativeReadout": 17.7}
{"compound": "COc1ccc(NC(=O)c2cc(-c3ccccc3)on2)cc1OC", "readout": "inhibition", "quantityUnit": "%", "quantitativeReadout": 6.07}
{"compound": "CCNc1c(NC(=O)C2CCC(C)CC2)c(=O)oc2ccccc12 (stereo unspecified)", "readout": "inhibition", "quantityUnit": "%", "quantitativeReadout": 7.89}
{"compound": "Cc1cc(-c2nnc(CCC(=O)N(C)C(C)c3cccs3)o2)no1 (stereo unspecified)", "readout": "inhibition", "quantityUnit": "%", "quantitativeReadout": 22}
{"compound": "O=C(c1cc([N+](=O)[O-])ccc1Cl)N1c2ccccc2Sc2ccccc21", "readout": "inhibition", "quantityUnit": "%", "quantitativeReadout": 3.02}

Task item: Given COC(=O)[C@@H]1C[C@H]2CC[C@H](O)C[C@H]2N1Cc1ccc(Cl)cc1 , report its inhibition on Large T antigen (Simian virus 40) (UniProt P03070).
Reply: 8.58
